Reference source: PubChem BioAssay (NCI)

Tested on: DU-145 prostate
Test: NCI-60 one-dose screen, 48 h
Conditions: 10 µM unless noted
The panel holds about 83,000 compounds, 20% with a hit somewhere; the sample as a whole holds those more often. Active and inactive are the calls of the source. The calls were made as follows: active = growth percent below 10; inactive = the rest.
// classify into active, inactive

Solved cases (3 shown):
INSERT INTO measurements (compound, studytarget, classname) VALUES
  ('CC1(C)CC[C@]2(C(=O)O)CC[C@]3(C)C(=CC[C@@H]4[C@@]5(C)Cc6c([nH]c7ccccc67)C(C)(C)[C@@H]5CC[C@]43C)[C@@H]2C1', 'DU-145 prostate', 'inactive'),
  ('O=C(/C=C(O)/C=C/c1ccc(SC(F)(F)F)cc1)/C=C/c1ccc(SC(F)(F)F)cc1', 'DU-145 prostate', 'inactive'),
  ('CCN1C(=O)/C(=C/C(=O)OC)S/C1=N\NC(=O)c1cc2ccc1/C=C\c1ccc(cc1)/C=C\2', 'DU-145 prostate', 'inactive');

Assay result, entry N#C/C(=C\c1c(-c2ccccc2)[nH]c2ccccc12)C(=O)c1ccc(Cl)cc1 — outcome?
inactive

Assay result, entry CC(=O)O[C@@H]1C2CCC3C(CC[C@@]4(C)C3CC[C@@H]4C(C)N(C)C)[C@@]2(C)CC[C@@H]1NC(=O)C=C(C)C (stereo partly drawn) — outcome?
inactive

Assay result, entry CCCCC/C=C/C(C)=C/C1CC(C)C/C=C/CCC(O)C(OC(N)=O)CCC(C)CC(O)C(C)C(=O)O1 (stereo not drawn) — outcome?
inactive

Assay result, entry CCCOc1ccc(/C=N/Nc2cc(C)nc3ccc(Br)cc23)cc1 — outcome?
inactive
